# Test system: UACC-257 melanoma
# measurement-description: NCI tumour cell line growth inhibition, 48 h
Recorded measurements of TGI, one per entry

Look at this compound and give its reported TGI. CCCOc1nc(SCCC)nc2c1cnn2-c1ccccc1 > 100 µM

Look at this compound and give its reported TGI. CCC(/C=C/c1ccccc1)=N\Nc1ccc(Cl)c(Cl)c1 > 100 µM

Look at this compound and give its reported TGI. C[C@@H](NC1CCC[C@H]1O)c1ccccc1 (stereo not given in full) > 100 µM

Look at this compound and give its reported TGI. CC(CCC(=O)O)C1CCC2C3C(O)CC4CC(O)CCC4(C)C3CC(O)C12C (stereo not given) > 100 µM

Look at this compound and give its reported TGI. CCCOC(=O)CCn1c(SC)nc2[nH]cc(-c3ccccc3)c2c1=O > 100 µM

###

# Tested on: PC-3 prostate
# measurement-description: NCI tumour cell line growth inhibition, 48 h
reported-metric: GI50

Here are 2 compounds together with their reported answers.
compound-smiles	measurement-target	result
CS(=O)(=O)Nc1ccc(N=Cc2c(O)[nH]c3ccccc23)cc1	PC-3 prostate	> 25 µM
COc1cc(C(=O)/C=C/c2cccnc2Nc2ccccc2)cc(OC)c1OC	PC-3 prostate	1.1 µM

With those in mind, consider the next compound.
Look at this compound and give its reported GI50. O=C(OCCBr)c1ccc(Cl)c([N+](=O)[O-])c1 5.23 µM

###

# Test system: CAKI-1 renal
# measurement-description: NCI tumour cell line growth inhibition, 48 h
Recorded measurements of TGI, one per entry

Here are 3 molecules together with their reported answers.
compound-smiles	TGI
C[n+]1cccc2ccc(OC(=O)c3ccccc3)cc21	> 100 µM
NC(=O)NC(=O)c1cccc(NC(=O)CF)c1	> 100 µM
CC(C)(C)[Si](C)(C)OCCOCn1cc(F)c(=O)[nH]c1=O	> 100 µM

With those in mind, consider the next molecule.
Look at this molecule and give its reported TGI. CC(C)C[C@H](NC(=O)[C@@H](O)[C@H](N)Cc1ccc([N+](=O)[O-])cc1)C(=O)O > 25 µM

###

# Test system: NCI-H23 lung
# measurement-description: NCI tumour cell line growth inhibition, 48 h
reported-metric: GI50

Here are 2 compounds together with their reported answers.
compound	GI50
Nc1n[nH]c2ccc([C@@H]3Nc4ccc5[nH]ncc5c4[C@H]4C5C=CC(C5)[C@@H]34)cc12 (stereo partly drawn)	446 nM
CCOc1ccccc1/C=N\N=C(\N)N/N=C/c1ccccc1OCC	5860 nM

With those in mind, consider the next compound.
Observed GI50 on NCI-H23 lung for CC(C)c1ccc(Nc2nccc(-c3cnn4ncccc34)n2)cc1 , please. 483 nM

###

# Test system: IGROV1 ovarian
# measurement-description: NCI tumour cell line growth inhibition, 48 h
Recorded measurements of TGI, one per entry

Look at this molecule and give its reported TGI. COC(=O)C1=C(C(=O)OC)SC(=C(N=Nc2ccccc2)c2ccccc2)S1 > 100 µM

Look at this molecule and give its reported TGI. COc1cc(Oc2nc3c(N)cc(C(F)(F)F)cc3nc2-c2ccccc2)cc(OC)c1OC > 24.3 µM

Look at this molecule and give its reported TGI. CC(C)(C)OC(=O)N(CCNS(=O)(=O)c1cccc2cnccc12)CCC(=O)ON1C(=O)CCC1=O > 100 µM

Look at this molecule and give its reported TGI. O=C(NN1C(=O)CSC1c1ccc(C(F)(F)F)cc1)c1ccncc1 (stereo unspecified) > 100 µM

Look at this molecule and give its reported TGI. CC(C)(C)OC(=O)N/N=C(/N)Cc1ccccc1 > 100 µM

Look at this molecule and give its reported TGI. O=C1CCC2(c3ccccc3)Nc3ncccc3N12 (stereo unspecified) > 100 µM
